- measured.on: PIP4K2C (Homo sapiens, UniProt Q8TBX8)
- Sequence (Q8TBX8 whole entry): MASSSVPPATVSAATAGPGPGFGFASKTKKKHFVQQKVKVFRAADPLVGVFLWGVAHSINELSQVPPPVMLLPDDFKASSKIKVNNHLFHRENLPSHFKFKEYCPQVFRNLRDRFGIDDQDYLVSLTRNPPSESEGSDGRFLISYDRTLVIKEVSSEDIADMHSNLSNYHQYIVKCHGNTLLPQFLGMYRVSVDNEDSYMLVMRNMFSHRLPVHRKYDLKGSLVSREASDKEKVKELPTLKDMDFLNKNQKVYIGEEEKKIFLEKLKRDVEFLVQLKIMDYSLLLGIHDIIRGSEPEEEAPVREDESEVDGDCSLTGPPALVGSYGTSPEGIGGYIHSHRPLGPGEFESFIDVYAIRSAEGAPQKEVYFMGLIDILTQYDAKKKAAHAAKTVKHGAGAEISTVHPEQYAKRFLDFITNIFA
- procedure.details: HiBiT PIP4K2C degradation assay in MOLT-4 cells (endogenous PIP4K2C C-terminally tagged with HiBiT)
- Type: cell-based
- Design: untagged in primary human PBMCs and monocyte-derived dendritic cells
- protocol.conditions: 6 hours of incubation time, rather than 24 hours; MOLT-4, top concentration 10 micromolar; read-out: HiBIT-degradation MOLT4 PIP4k2C DC50 (6 hours, marked *)
Catalogue of DC50 values
measure: DC50

| molecule | measured.on | result.value |
| --- | --- | --- |
| O=C1CCC(Nc2ccc(N3CCC(N4CCN(C(=O)O[C@H]5CC[C@H](Nc6ncc(F)c(-c7cccc(-n8ccccc8=O)c7)n6)CC5)CC4)C(F)C3)c(F)c2)C(=O)N1 (stereo partly drawn) | PIP4K2C (Homo sapiens, UniProt Q8TBX8) | > 5000 nM |
| O=C1CC[C@H](Nc2ccc(C3CCN(CC4(O)CCN(C(=O)[C@H]5CC[C@H](Nc6ncc(F)c(-c7cccc(N8CCCCC8)c7)n6)CC5)CC4)CC3)c(F)c2)C(=O)N1 | PIP4K2C (Homo sapiens, UniProt Q8TBX8) | < 500 nM |
| O=C1CCC(Nc2ccc(C3CCN(C[C@H]4CC[C@H](C(=O)N5CCC(Nc6ncc(F)c(-c7cccc(N8CCCOC8=O)c7)n6)CC5)CC4)CC3)c(F)c2)C(=O)N1 (stereo partly drawn) | PIP4K2C (Homo sapiens, UniProt Q8TBX8) | < 500 nM |
